Where do the numbers come from? From paper PMC7819943.

System: OsWRKY34 (Oryza sativa, UniProt Q0JBA9 1-250)
Sequence (Q0JBA9 entry or part of it): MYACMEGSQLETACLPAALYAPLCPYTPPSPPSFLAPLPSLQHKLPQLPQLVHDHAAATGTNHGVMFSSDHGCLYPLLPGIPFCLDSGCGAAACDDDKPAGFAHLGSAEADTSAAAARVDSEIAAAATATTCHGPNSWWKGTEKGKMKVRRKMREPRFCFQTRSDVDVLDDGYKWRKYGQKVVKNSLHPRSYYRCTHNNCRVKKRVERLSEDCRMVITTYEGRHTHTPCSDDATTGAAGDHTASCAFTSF
Assay procedure: protein-binding microarray (RPBM); PBS, 2% BSA, 51.3 ng/ul salmon testes DNA, 50 uM zinc acetate, 200 nM TF, 25 C, 1 h; high values mean tight binding
Test conditions: protein: recombinant; tags: N-terminal polyhistidine and DsRed monomer fusion (pET32a); label: CyDye5-dUTP incorporated in the synthesized complementary strand; 3' TTTTT single-stranded linker to array surface; dsDNA, one strand shown
Over roughly 68,000 sequences, “fluorescence intensity (a.u.)” has its median near 9,100; the highest 2% begin near 16,000. The entries come from a sample that favours the highest values as a whole.
Reported metric: binding signal

Request: Please provide the recorded binding signal for `CCCTGGTTTCCGTGTCCAATGTTTGACCGTCCGTCTTATTCGGAGTCACCTAGTGCAG` , tested on OsWRKY34 (Oryza sativa, UniProt Q0JBA9 1-250).
Response: 10200 fluorescence intensity (a.u.)

Request: Please provide the recorded binding signal for `CTACACACAAACTTCCAACTTTTCTGTCACATCGTTCCAACGGAGTCACCTAGTGCAG` , tested on OsWRKY34 (Oryza sativa, UniProt Q0JBA9 1-250).
Response: 11900 fluorescence intensity (a.u.)

Request: Please provide the recorded binding signal for `AACTTTCTCCCACCGGCCACCGCGCGTCTCTTGCCACGACCGGAGTCACCTAGTGCAG` , tested on OsWRKY34 (Oryza sativa, UniProt Q0JBA9 1-250).
Response: 12200 fluorescence intensity (a.u.)

Request: Please provide the recorded binding signal for `CGGGTTCAATATATTGTTTTTTTTAAGACTGGTTCAATATCGGAGTCACCTAGTGCAG` , tested on OsWRKY34 (Oryza sativa, UniProt Q0JBA9 1-250).
Response: 8880 fluorescence intensity (a.u.)

Request: Please provide the recorded binding signal for `CCCACCGCTCCTCCGCGCCACGCTTCCTCGCCGCGCGCGCCGGAGTCACCTAGTGCAG` , tested on OsWRKY34 (Oryza sativa, UniProt Q0JBA9 1-250).
Response: 8390 fluorescence intensity (a.u.)

* * *

Please go through the items and note down their binding signal.
System: OsWRKY34 (Oryza sativa, UniProt Q0JBA9 1-250)
Assay procedure: protein-binding microarray (RPBM); PBS, 2% BSA, 51.3 ng/ul salmon testes DNA, 50 uM zinc acetate, 200 nM TF, 25 C, 1 h; high values mean tight binding
Test conditions: protein: recombinant; tags: N-terminal polyhistidine and DsRed monomer fusion (pET32a); label: CyDye5-dUTP incorporated in the synthesized complementary strand; 3' TTTTT single-stranded linker to array surface; dsDNA, one strand shown
The full ranking holds about 68,000 sequences; the median of “fluorescence intensity (a.u.)” is about 9,100, and the highest 2% start at about 16,000. This excerpt belongs to a sample that is enriched for the highest values.

Request: Find the recorded binding signal belonging to `GGTTTGGTTTTGTTTAGTGGGTTAGAAGCCAATGAGAGCACGGAGTCACCTAGTGCAG` and report it.
Response: 10300 fluorescence intensity (a.u.)

Request: Find the recorded binding signal belonging to `CATTTAATCTCCTCGTTACCGCTCAATTAACGCACCGATTCGGAGTCACCTAGTGCAG` and report it.
Response: 8880 fluorescence intensity (a.u.)

Request: Find the recorded binding signal belonging to `TACCTCATTCCCTAAATGTTTGACGCCGTTGACTTTTTTACGGAGTCACCTAGTGCAG` and report it.
Response: 17500 fluorescence intensity (a.u.)

Request: Find the recorded binding signal belonging to `CCTTCACCTGGTAATCATTTCGATGCATTCATTTCCCTATCGGAGTCACCTAGTGCAG` and report it.
Response: 8470 fluorescence intensity (a.u.)

Request: Find the recorded binding signal belonging to `GCTATCGCCGGTTTCGTCATCAATAATCTTCTCTGCCTCTCGGAGTCACCTAGTGCAG` and report it.
Response: 8820 fluorescence intensity (a.u.)

Request: Find the recorded binding signal belonging to `CTCTACTTCTAATGTTCCTTATTTTTTTTCCGAGTTTCTACGGAGTCACCTAGTGCAG` and report it.
Response: 9390 fluorescence intensity (a.u.)

Request: Find the recorded binding signal belonging to `ATTTCCCGTCCTTGTCCTAAATGAGTACTAATTTTGATTTCGGAGTCACCTAGTGCAG` and report it.
Response: 10400 fluorescence intensity (a.u.)

Request: Find the recorded binding signal belonging to `GGCTGCTTCAGGGGCGTGGGAGAGGTTTGGGGTTGGTTCACGGAGTCACCTAGTGCAG` and report it.
Response: 16000 fluorescence intensity (a.u.)

Request: Find the recorded binding signal belonging to `ATGTATTGGTGTTATGCCTTCTGTTTATTTTATTTGCTCCCGGAGTCACCTAGTGCAG` and report it.
Response: 8730 fluorescence intensity (a.u.)

Request: Find the recorded binding signal belonging to `ATTTGCACCTGTTGAATGGGCATGTCTTGTGTGTGTTTCTCGGAGTCACCTAGTGCAG` and report it.
Response: 8400 fluorescence intensity (a.u.)

Request: Find the recorded binding signal belonging to `GTGGTGGTGCGCGGCGGCGGCGGCGGGGAGGGGTGTGTGTCGGAGTCACCTAGTGCAG` and report it.
Response: 24500 fluorescence intensity (a.u.)

Request: Find the recorded binding signal belonging to `GTGTGGTCGTCGTGTCGGCGGCGGCGGCGGCGGCGGGAGGCGGAGTCACCTAGTGCAG` and report it.
Response: 14300 fluorescence intensity (a.u.)

Request: Find the recorded binding signal belonging to `CACCAAGCATGTCCATGACCTTGCACTCTTGGCTCACTCGCGGAGTCACCTAGTGCAG` and report it.
Response: 8030 fluorescence intensity (a.u.)

Request: Find the recorded binding signal belonging to `ATTTGTATTTGTTTTTTGTTTGTTAGTATTAGGGTGCTTTCGGAGTCACCTAGTGCAG` and report it.
Response: 9720 fluorescence intensity (a.u.)

Request: Find the recorded binding signal belonging to `GATCTCTCTCTCATCAGGACCCCGGCCTTAAGTTGTTTCTCGGAGTCACCTAGTGCAG` and report it.
Response: 9120 fluorescence intensity (a.u.)

Request: Find the recorded binding signal belonging to `GTCCAAGTTTGCCTTTCTCACTGGGGAGCGGGTGGGCTGTCGGAGTCACCTAGTGCAG` and report it.
Response: 21000 fluorescence intensity (a.u.)

Request: Find the recorded binding signal belonging to `TGTTAGTATTAGGGTGCTTTTGGGTTTGGGGTTTCTGCCACGGAGTCACCTAGTGCAG` and report it.
Response: 24200 fluorescence intensity (a.u.)

Request: Find the recorded binding signal belonging to `GGTTTTCATGGTGCTGTGGATGTTCACTAGCTTTGGAGGGCGGAGTCACCTAGTGCAG` and report it.
Response: 10900 fluorescence intensity (a.u.)

Request: Find the recorded binding signal belonging to `CCTTTCCAAGTCGGTCGGGGTAGCTGGGTTGTCTCGCCGGCGGAGTCACCTAGTGCAG` and report it.
Response: 12300 fluorescence intensity (a.u.)
